# target.desc: GR (Homo sapiens, UniProt P04150)
# Sequence (P04150 whole entry): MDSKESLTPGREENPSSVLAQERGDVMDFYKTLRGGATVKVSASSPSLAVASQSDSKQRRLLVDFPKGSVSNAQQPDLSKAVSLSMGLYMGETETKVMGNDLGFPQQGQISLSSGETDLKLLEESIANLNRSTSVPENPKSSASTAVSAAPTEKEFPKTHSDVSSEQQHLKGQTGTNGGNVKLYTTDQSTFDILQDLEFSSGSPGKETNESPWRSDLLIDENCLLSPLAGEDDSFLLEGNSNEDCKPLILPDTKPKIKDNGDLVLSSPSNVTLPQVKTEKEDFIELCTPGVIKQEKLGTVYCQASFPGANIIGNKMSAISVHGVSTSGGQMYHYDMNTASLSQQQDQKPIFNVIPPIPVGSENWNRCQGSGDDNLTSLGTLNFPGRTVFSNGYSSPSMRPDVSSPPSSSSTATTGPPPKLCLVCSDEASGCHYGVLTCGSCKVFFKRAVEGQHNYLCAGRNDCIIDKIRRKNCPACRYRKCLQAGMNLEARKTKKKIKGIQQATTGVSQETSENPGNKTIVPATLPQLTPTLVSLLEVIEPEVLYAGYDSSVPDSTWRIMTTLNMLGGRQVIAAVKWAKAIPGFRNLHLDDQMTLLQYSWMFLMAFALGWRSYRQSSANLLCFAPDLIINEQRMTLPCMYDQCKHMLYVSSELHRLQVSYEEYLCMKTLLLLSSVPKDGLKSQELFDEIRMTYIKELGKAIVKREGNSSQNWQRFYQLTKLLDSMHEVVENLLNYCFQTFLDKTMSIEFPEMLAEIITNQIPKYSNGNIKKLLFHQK
# protocol.summary: SAFETYScan NHR Protein Interaction, Antagonist
# condition.notes: read-out: RC50 (IC50)
measurement.name: IC50

>>> print(df.to_string())
                                   molecule  measurement_name  reported_measurement
0  C[C@H]1C[C@@H](O)CN(c2ncc(Cl)c(Nc3ccc4c(c3)c3c(c(=O)n4C)OCC(F)(F)[C@H](C4CC4)N3)n2)C1 [12a CCT373566]              IC50               > 10 µM

* * *

# target.desc: ADRB1 (Homo sapiens, UniProt P08588)
# Construct: expressed in transfected cells
# Sequence (P08588 whole entry): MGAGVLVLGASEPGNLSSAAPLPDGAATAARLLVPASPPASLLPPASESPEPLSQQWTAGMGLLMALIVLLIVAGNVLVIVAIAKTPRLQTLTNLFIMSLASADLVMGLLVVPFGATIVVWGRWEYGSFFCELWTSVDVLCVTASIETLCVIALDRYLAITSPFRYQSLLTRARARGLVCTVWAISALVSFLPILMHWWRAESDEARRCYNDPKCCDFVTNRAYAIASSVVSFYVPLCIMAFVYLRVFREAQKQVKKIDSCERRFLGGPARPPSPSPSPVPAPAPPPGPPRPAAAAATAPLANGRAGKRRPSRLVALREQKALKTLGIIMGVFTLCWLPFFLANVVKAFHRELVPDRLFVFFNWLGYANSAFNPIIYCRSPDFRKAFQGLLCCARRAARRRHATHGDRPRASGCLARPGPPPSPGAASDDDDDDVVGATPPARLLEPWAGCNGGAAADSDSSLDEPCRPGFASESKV
# protocol.summary: SAFETYScan GPCR cAMP, Agonist
# Assay type: cell-based
# condition.notes: read-out: RC50 (EC50)
measurement.name: EC50

In [3]: df
Out[3]:
                                   compound  measurement_name  reported_measurement
0  C[C@H]1C[C@@H](O)CN(c2ncc(Cl)c(Nc3ccc4c(c3)c3c(c(=O)n4C)OCC(F)(F)[C@H](C4CC4)N3)n2)C1 [12a CCT373566]              EC50               > 10 µM

* * *

# target.desc: endogenous BCL6 in OCI-Ly1 cells (Homo sapiens, UniProt P41182)
# protocol.summary: cell-based
# condition.notes: OCI-Ly1 MSD assay
measurement.name: degradation of BCL6 (in words)

>>> print(df.to_string())
                                   molecule                measurement_name  reported_measurement
0  Cn1c(=O)c2c(c3cc(Nc4nc(N5CCC(F)(F)[C@H](O)C5)ncc4Cl)ccc31)N[C@@H](C1CC1)C(F)(F)CO2 (single isomer, unassigned)  degradation of BCL6 (in words)   nondegrading isomer
1  C[C@@H]1C[C@H](N(C)C)CN(c2ncc(Cl)c(Nc3ccc4c(c3)c3c(c(=O)n4C)OCC(F)(F)[C@H](C4CC4)N3)n2)C1 [11b]  degradation of BCL6 (in words)   nondegrading isomer
2  C[C@H]1CCCN(c2ncc(Cl)c(Nc3ccc4c(c3)c3c(c(=O)n4C)OCC(F)(F)[C@H](C4CC4)N3)n2)C1 [15a]  degradation of BCL6 (in words)     degraders of BCL6
3  C[C@@H]1CCCN(c2ncc(Cl)c(Nc3ccc4c(c3)c3c(c(=O)n4C)OCC(F)(F)[C@H](C4CC4)N3)n2)C1 [15b]  degradation of BCL6 (in words)     degraders of BCL6
4  CC(=O)N[C@H]1C[C@@H](C)CN(c2ncc(Cl)c(Nc3ccc4c(c3)c3c(c(=O)n4C)OCC(F)(F)[C@H](C4CC4)N3)n2)C1 [10b]  degradation of BCL6 (in words)   nondegrading isomer

* * *

fraction unbound listing for selected molecules.
# protocol.summary: in vitro
# Assay type: in vitro ADME
# condition.notes: bovine; fraction unbound in OCI-Ly1 DC50 assay medium; read-out: fu,media
measurement.name: fraction unbound

>>> df
                                   molecule  measurement_name  reported_measurement
0  C[C@H]1C[C@@H](O)CN(c2ncc(Cl)c(Nc3ccc4c(c3)c3c(c(=O)n4C)OCC(F)(F)[C@H](C4CC4)N3)n2)C1 [12a CCT373566]  fraction unbound                  0.13
1  C[C@H]1C[C@@H](O)CN(c2ncc(Cl)c(Nc3ccc4c(c3)n(CCC(C)(C)O)c(=O)n4C)n2)C1 (relative stereo)  fraction unbound                  0.37
2  Cn1c(=O)c2c(c3cc(Nc4nc(N5CCC(F)(F)[C@@H](CO)C5)ncc4Cl)ccc31)N[C@@H](C1CC1)C(F)(F)CO2  fraction unbound                 0.088
